target: NADPH oxidase 4 (Homo sapiens) (UniProt Q9NPH5); experiment: compounds shifting NOX4 Amplex Red fluorescence – cell-based, HEK293-NOX4, tetracycline-induced, NOX inhibitor project, primary screen (AID 1160); details: HEK293-NOX4, Amplex Red H2O2 fluorescence, 45 min; higher = more signal, called active from +8 up or from −8 down
Sequence (Q9NPH5 whole entry, looked up): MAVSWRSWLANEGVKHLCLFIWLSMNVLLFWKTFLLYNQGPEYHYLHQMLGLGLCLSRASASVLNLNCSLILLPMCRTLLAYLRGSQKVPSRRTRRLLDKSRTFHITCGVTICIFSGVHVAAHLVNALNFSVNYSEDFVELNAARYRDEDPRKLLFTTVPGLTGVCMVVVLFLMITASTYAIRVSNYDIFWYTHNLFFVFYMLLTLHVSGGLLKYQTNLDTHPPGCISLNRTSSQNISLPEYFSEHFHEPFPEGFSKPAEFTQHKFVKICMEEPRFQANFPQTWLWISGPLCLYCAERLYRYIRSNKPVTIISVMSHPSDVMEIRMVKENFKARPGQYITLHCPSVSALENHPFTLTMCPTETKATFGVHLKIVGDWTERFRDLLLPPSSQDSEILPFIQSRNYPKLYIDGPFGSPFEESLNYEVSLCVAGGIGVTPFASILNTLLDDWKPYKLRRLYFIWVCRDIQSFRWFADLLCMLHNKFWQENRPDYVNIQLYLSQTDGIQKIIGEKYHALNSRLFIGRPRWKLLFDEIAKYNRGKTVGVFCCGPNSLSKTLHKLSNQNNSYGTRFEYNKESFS
Rule: 1 for z-score not less than -1, 0 for anything less.

Illustrative cases are given below, each with its answer.
# check: z-score of C=CCOC(=O)[C@H]1[C@@H]2C(=O)O[C@@H](c3ccccc3)[C@@H](c3ccccc3)N2[C@@H](c2ccc(OCCOC(=O)[C@@H]3C[C@@H]4C(=O)NCC(=O)N4[C@@H]3c3ccc(O)cc3)cc2)[C@]12C(=O)Nc1ccc(I)cc12 is greater than or equal to -1
1

Is z-score at least -1? Consider O=C1O[C@@H](c2ccccc2)[C@@H](c2ccccc2)N2[C@@H](c3ccc(O)cc3)[C@]3(C(=O)Nc4ccc(C#CCCO)cc43)[C@@H](C(=O)O)[C@H]12
0

hey, is z-score for this one >= -1? Cc1ccc(N2C(=O)c3ccccc3[C@@H](C(=O)NC(C)C)[C@@H]2c2ccc(CO)cc2)nc1
0

Entry CN(C)CCCCCCNC(=O)[C@@H]1C[C@@H]2C(=O)N[C@@H](Cc3ccccc3)C(=O)N2[C@@H]1c1cccc(OCCO)c1 : is its z-score no less than -1?
1

Can CC(c1ccccc1)C(O)C1C=CC2C(=O)N(c3ccccc3)C(=O)C2N1Nc1ccccc1F (configuration not stated) be said to have z-score at or above -1?
1

---
Check if z-score >= -1 (inclusive). Item: CC1(C)C(=O)C(c2ccccc2)=C2CN3C(=O)N(CCc4ccccc4)C(=O)C3(Cc3ccccc3)C=C21 (configuration not stated)
1

For this compound, is measured z-score -1 or higher? COC(=O)c1c2oc(c1C(=O)OC)C(=O)N[C@H](Cc1ccccc1)Cn1nncc1C1(CCCCC1)NC(=O)N[C@H](CO)CC2
0

----------
target: Concanavalin-A (Canavalia ensiformis); assay: compounds binding concanavalin A lectin – biochemical, small-molecule microarray, Alexa647 label, 635 nm, artefact control for SMM control protein annotation, primary screen (AID 1127); conditions: ConA-A647 binding fluorescence, higher = more signal;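 further: z combines 667 nm emission intensity with signal-to-noise across three replicate slides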
Parameter composite z-score: see the listing below.

Using known records, supply composite z-score for COc1ccc([Si](C)(C)[C@H]2[C@H](CC(=O)N3CCC[C@H]3CO)O[C@@]3(C(=O)N(Cc4cccc(N5CCC5=O)c4)c4ccccc43)[C@@H]2C)cc1
0.759

Check the records and state composite z-score for [N-]=[N+]=NCc1ccccc1C[C@@]1(C(=O)NCc2ccccc2)N=C(c2ccc(OCCCO)cc2)O[C@@H]1c1ccccc1CN=[N+]=[N-]
1

Please give the documented composite z-score of COCCCNC(=O)[C@@]1(Sc2ccc(C)cc2)CC(=O)N(Cc2ccccc2)[C@@H]1c1ccc(CO)cc1
-0.668

Input C=C(CCCC)C(=O)CC[C@H](OC(=O)c1ccccc1-c1ccccc1C(=O)O)c1ccc(CO)o1 , output reported composite z-score.
0.933

Specify composite z-score for C=C(CCCC)C(=O)CC[C@H](OC(C)=O)c1ccc(CO)o1 and stop.
-0.0156

***
Kindly indicate its recorded composite z-score. Item: CC(C)NC(=O)[C@@H]1c2ccccc2C(=O)N(C2CCCCC2)[C@H]1c1ccc(CO)cc1
0.661

Could you please provide reported composite z-score for CC(c1ccccc1)C(O)C1C=CC2C(=O)N(Cc3ccccc3)C(=O)C2N1n1cnnc1 (stereo not drawn) ? Thanks!
0.851

Please supply the value of reported composite z-score for the item COC(=O)[C@@]1(Cc2ccc(OC)cc2)[C@H]2c3cc(C(=O)N4CCCC4)n(CCN4CCOCC4)c3C[C@H]2CN1C(=O)c1ccccc1
0.991
